- Tested on: HeLa Kyoto;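 further: synchronized HeLa Kyoto cells, proteins quantified by TMT10plex mass spectrometry, three biological replicates, mitosis taken 0.5 h after nocodazole release, G1/S directly after double thymidine block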
- test: thermal stability score vs G1/S (z-score of summed log2 fold changes over temperatures); higher = more thermally stable than in G1/S
- stated conditions: cell cycle stage: early G1 (4.5 h after nocodazole release)
measurement label: thermal stability score
API note: the answer field is a bare number with no unit suffix.

Sample records with thermal stability score:
{"sequence entry": "MVLLTMIARVADGLPLAASMQEDEQSGRDLQQYQSQAKQLFRKLNEQSPTRCTLEAGAMTFHYIIEQGVCYLVLCEAAFPKKLAFAYLEDLHSEFDEQHGKKVPTVSRPYSFIEFDTFIQKTKKLYIDSRARRNLGSINTELQDVQRIMVANIEEVLQRGEALSALDSKANNLSSLSKKYRQDAKYLNMRSTYAKLAAVAVFFIMLIVYVRFWWL [SEC22B]", "target entity": "HeLa Kyoto", "thermal stability score": 4.24}
{"sequence entry": "MSAQAQMRALLDQLMGTARDGDETRQRVKFTDDRVCKSHLLDCCPHDILAGTRMDLGECTKIHDLALRADYEIASKERDLFFELDAMDHLESFIAECDRRTELAKKRLAETQEEISAEVSAKAEKVHELNEEIGKLLAKAEQLGAEGNVDESQKILMEVEKVRAKKKEAEEEYRNSMPASSFQQQKLRVCEVCSAYLGLHDNDRRLADHFGGKLHLGFIQIREKLDQLRKTVAEKQEKRNQDRLRRREEREREERLSRRSGSRTRDRRRSRSRDRRRRRSRSTSRERRKLSRSRSRDRHRRHRSRSRSHSRGHRRASRDRSAKYKFSRERASREESWESGRSERGPPDWRLESSNGKMASRRSEEKEAGEI [LUC7L]", "target entity": "HeLa Kyoto", "thermal stability score": 1.93}

Next up:
Lookup: Record lookup: for HeLa Kyoto, what thermal stability score belongs to MSLNPPIFLKRSEENSSKFVETKQSQTTSIASEDPLQNLCLASQEVLQKAQQSGRSKCLKCGGSRMFYCYTCYVPVENVPIEQIPLVKLPLKIDIIKHPNETDGKSTAIHAKLLAPEFVNIYTYPCIPEYEEKDHEVALIFPGPQSISIKDISFHLQKRIQNNVRGKNDDPDKPSFKRKRTEEQEFCDLNDSKCKGTTLKKIIFIDSTWNQTNKIFTDERLQGLLQVELKTRKTCFWRHQKGKPDTFLSTIEAIYYFLVDYHTDILKEKYRGQYDNLLFFYSFMYQLIKNAKCSGDKETGKLTH [DTWD1] ?
Found: 1.51
